# MIC listing for each entry below
tested on: S. faecalis ATCC 7080; experiment: MIC, two-fold dilution microtiter, S. faecalis ATCC 7080; assay type: cell-based; conditions: Enterococcus faecalis, ATCC7080, 18-24 h, 37° C, read-out: MIC
Please don't drop the unit; write it after the number.

[
  {
    "compound": "COC1C=COC2(C)Oc3c(C)c(O)c4c(O)c(c5sc(N6CCNCC6)nc5c4c3C2=O)NC(=O)C(C)=CC=CC(C)C(O)C(C)C(O)C(C)C(OC(C)=O)C1C (centres unmarked) [Example 4, 2'-(1\"-Piperazinyl) rifamycin P]",
    "target.or.system": "S. faecalis ATCC 7080",
    "observed.property": "MIC",
    "experimental.result": "2 µg/mL"
  },
  {
    "compound": "CCOC(=O)N1CCN(c2nc3c(s2)c2c(O)c4c(O)c(C)c5c(c43)C(=O)C(C)(OC=CC(OC)C(C)C(OC(C)=O)C(C)C(O)C(C)C(O)C(C)C=CC=C(C)C(=O)N2)O5)CC1 (centres unmarked) [Example 1e]",
    "target.or.system": "S. faecalis ATCC 7080",
    "observed.property": "MIC",
    "experimental.result": "4 µg/mL"
  },
  {
    "compound": "COC1C=COC2(C)Oc3c(C)c(O)c4c(O)c(c5sc(N6CCN(C)CC6)nc5c4c3C2=O)NC(=O)C(C)=CC=CC(C)C(O)C(C)C(O)C(C)C(OC(C)=O)C1C (centres unmarked) [Example 3a]",
    "target.or.system": "S. faecalis ATCC 7080",
    "observed.property": "MIC",
    "experimental.result": "2 µg/mL"
  },
  {
    "compound": "COC1C=COC2(C)Oc3c(C)c(O)c4c(O)c(c5sc(N6CCOCC6)nc5c4c3C2=O)NC(=O)C(C)=CC=CC(C)C(O)C(C)C(O)C(C)C(OC(C)=O)C1C (centres unmarked) [Example 1b, 2'-(4\"-morpholinyl) rifamycin P]",
    "target.or.system": "S. faecalis ATCC 7080",
    "observed.property": "MIC",
    "experimental.result": "1 µg/mL"
  }
]

Just so you know, measured MIC for COC1C=COC2(C)Oc3c(C)c(O)c4c(O)c(c5sc(N6CCN(c7ccc(Cl)cc7)CC6)nc5c4c3C2=O)NC(=O)C(C)=CC=CC(C)C(O)C(C)C(O)C(C)C(OC(C)=O)C1C (centres unmarked) [Example 3d] came out at 2 µg/mL
